target: recombinant N-terminal MLH1 (residues 15-340) (Homo sapiens); construct: recombinant N-terminal MLH1 (residues 15-340); assay: Fluorescence Polarisation Assay for MLH1; conditions: fluorescence polarisation probe displacement; 100 nM N-terminal MLH1, 5 nM probe compound
Sequence (P40692 15-340): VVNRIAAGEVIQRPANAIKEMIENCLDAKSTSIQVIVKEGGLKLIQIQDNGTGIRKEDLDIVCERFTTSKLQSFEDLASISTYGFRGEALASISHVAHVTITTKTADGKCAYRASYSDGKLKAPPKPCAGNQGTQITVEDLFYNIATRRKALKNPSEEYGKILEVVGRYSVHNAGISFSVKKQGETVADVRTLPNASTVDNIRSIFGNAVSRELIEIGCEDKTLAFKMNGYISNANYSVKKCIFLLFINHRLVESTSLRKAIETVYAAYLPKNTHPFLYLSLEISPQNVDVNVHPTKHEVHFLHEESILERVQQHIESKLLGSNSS
pIC50: −log10 of the molar value. Where a name gives a salt, the structure may show the parent alone.
Reported pIC50 by item:
Metric: pIC50

[[record]]
compound = "NCc1cccc2c1CN(C(=O)c1c(O)cc(O)cc1OCc1ccccc1)C2 [Example 83, hydrochloride]"
test_target = "recombinant N-terminal MLH1 (residues 15-340) (Homo sapiens)"
readout_value = "> 6.00"

[[record]]
compound = "CN(C)Cc1cc2c(c(N[C@@H]3CCOC3)c1)CN(C(=O)c1c(O)cc(O)cc1OCc1ccccc1)CC2"
test_target = "recombinant N-terminal MLH1 (residues 15-340) (Homo sapiens)"
readout_value = "> 6.00"

[[record]]
compound = "CC(=O)N1CC[C@@H](Nc2cccc3c2CN(C(=O)c2c(O)cc(O)cc2OCc2ccccc2)CC3)C1"
test_target = "recombinant N-terminal MLH1 (residues 15-340) (Homo sapiens)"
readout_value = "> 6.00"

[[record]]
compound = "O=C(c1c(O)cc(O)cc1OCc1ccccc1)N1CCc2cccc(N[C@H]3CCOC3)c2C1"
test_target = "recombinant N-terminal MLH1 (residues 15-340) (Homo sapiens)"
readout_value = "> 6.00"

[[record]]
compound = "O=C(c1c(O)cc(O)cc1OCc1ccccc1)N1CCc2cccc(N[C@@H]3CCOC3)c2C1"
test_target = "recombinant N-terminal MLH1 (residues 15-340) (Homo sapiens)"
readout_value = "> 6.00"

[[record]]
compound = "COc1cc2c(c(NC3CCOC3)c1)CN(C(=O)c1c(O)cc(O)cc1OCc1ccccc1)CC2 (single isomer, unassigned) [Example 73]"
test_target = "recombinant N-terminal MLH1 (residues 15-340) (Homo sapiens)"
readout_value = "5.00 to 6.00"

[[record]]
compound = "O=C(c1c(O)cc(O)cc1OCc1ccccc1)N1Cc2cccc(Nc3cncnc3)c2C1"
test_target = "recombinant N-terminal MLH1 (residues 15-340) (Homo sapiens)"
readout_value = "> 6.00"

[[record]]
compound = "O=C(c1c(O)cc(O)cc1OCc1ccccc1)N1Cc2cccc(NC3COCC(F)(F)C3)c2C1 (stereo not drawn)"
test_target = "recombinant N-terminal MLH1 (residues 15-340) (Homo sapiens)"
readout_value = "5.00 to 6.00"

[[record]]
compound = "Cn1cc(Nc2cccc3c2CN(C(=O)c2c(O)cc(O)cc2OCc2ccccc2)CC3)ccc1=O"
test_target = "recombinant N-terminal MLH1 (residues 15-340) (Homo sapiens)"
readout_value = "> 6.00"


###

target: recombinant N-terminal PMS2 (residues 1-365) (Homo sapiens); construct: recombinant N-terminal PMS2 (residues 1-365); assay: Fluorescence Polarisation Assay for PMS2; type: binding; settings: fluorescence polarisation probe displacement; 10 nM N-terminal PMS2, 5 nM probe compound; read-out: PMS2 IC50
Sequence (P54278 1-365): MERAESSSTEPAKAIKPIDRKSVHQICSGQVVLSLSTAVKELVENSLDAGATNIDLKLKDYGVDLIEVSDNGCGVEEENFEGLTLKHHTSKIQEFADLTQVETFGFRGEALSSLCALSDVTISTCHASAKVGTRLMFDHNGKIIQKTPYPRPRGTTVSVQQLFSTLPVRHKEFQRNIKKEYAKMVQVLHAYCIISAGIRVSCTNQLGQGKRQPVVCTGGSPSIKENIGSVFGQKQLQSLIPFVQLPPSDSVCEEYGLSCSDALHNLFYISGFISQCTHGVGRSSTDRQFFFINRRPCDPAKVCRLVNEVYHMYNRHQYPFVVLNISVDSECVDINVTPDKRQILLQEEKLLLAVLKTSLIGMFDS
Reported IC50 by item:
Metric: IC50

[[record]]
compound = "O=C(c1c(O)cc(O)cc1OCc1ccccc1)N1Cc2cccc(Nc3cncnc3)c2C1"
readout_value = "< 1 µM"

[[record]]
compound = "O=C(c1c(O)cc(O)cc1OCc1ccccc1)N1Cc2cccc(OC3CCOC3)c2C1 (stereo not shown)"
readout_value = "1 to 10 µM"

[[record]]
compound = "O=C(c1c(O)cc(O)cc1OCC1CCCCC1)N1CCc2cccc(N[C@H]3CCOC3)c2C1"
readout_value = "< 1 µM"

[[record]]
compound = "O=C(c1c(O)cc(O)cc1OCc1ccccc1)N1CCc2ccc(CNC3COC3)cc2C1"
readout_value = "1 to 10 µM"

[[record]]
compound = "CNc1cccc2c1CN(C(=O)c1c(O)cc(O)cc1OCc1ccccc1)C2"
readout_value = "1 to 10 µM"

[[record]]
compound = "O=C(c1c(O)cc(O)cc1OCc1ccncc1)N1Cc2cccc(NC3CCOC3)c2C1 (stereo not shown)"
readout_value = "1 to 10 µM"

[[record]]
compound = "O=C(c1c(O)cc(O)cc1OCc1ccc(F)c(F)c1)N1Cc2cccc(NC3CCOC3)c2C1 (stereo not shown)"
readout_value = "1 to 10 µM"

[[record]]
compound = "O=C(c1c(O)cc(O)cc1OCc1ccccc1)N1CCc2cccc(Nc3cnccn3)c2C1"
readout_value = "1 to 10 µM"

[[record]]
compound = "O=C(Nc1cccc2c1CN(C(=O)c1c(O)cc(O)cc1OCc1ccccc1)CC2)C1CCOC1 (stereo not shown)"
readout_value = "> 10 µM"

[[record]]
compound = "Cn1cc(Nc2cccc3c2CN(C(=O)c2c(O)cc(O)cc2OCc2ccccc2)CC3)cn1"
readout_value = "1 to 10 µM"

[[record]]
compound = "O=C(c1c(O)cc(O)cc1OCc1ccccc1)N1Cc2cccc(NC3CCCOC3)c2C1 (single isomer, unassigned) [Example 30]"
readout_value = "1 to 10 µM"

[[record]]
compound = "O=C(c1c(O)cc(O)cc1OCc1ccccn1)N1CCc2cccc(NC3COC3)c2C1"
readout_value = "> 10 µM"

[[record]]
compound = "O=C(c1c(O)cc(O)cc1OCc1ccccc1)N1CCc2cccc(Nc3ccc(=O)[nH]c3)c2C1"
readout_value = "> 10 µM"

[[record]]
compound = "O=C(c1c(O)cc(O)cc1OCc1ccccn1)N1Cc2cccc(NC3CCOC3)c2C1 (stereo not shown)"
readout_value = "> 10 µM"

[[record]]
compound = "O=C(c1c(O)cc(O)cc1OCc1ccccc1)N1Cc2cccc(NCC3CCCO3)c2C1 (stereo not shown)"
readout_value = "1 to 10 µM"

[[record]]
compound = "CN1CCC(Nc2cccc3c2CN(C(=O)c2c(O)cc(O)cc2OCc2ccccc2)CC3)C1 (stereo not shown)"
readout_value = "> 10 µM"

[[record]]
compound = "CNc1cc(OCCOC)cc2c1CN(C(=O)c1c(O)cc(O)cc1OCc1ccccc1)CC2"
readout_value = "1 to 10 µM"

[[record]]
compound = "COCCOc1cc2c(c(N[C@H]3CCOC3)c1)CN(C(=O)c1c(O)cc(O)cc1OCc1ccccc1)CC2"
readout_value = "1 to 10 µM"

[[record]]
compound = "CN(C)C(=O)N1CCC(Nc2cccc3c2CN(C(=O)c2c(O)cc(O)cc2OCc2ccccc2)CC3)C1 (stereo not shown)"
readout_value = "> 10 µM"

